Measured modulation upon carfilzomib-treatment 24 #3, listed per entry.
Test system: MM.1S cells
Assay: HLA class I ligand presentation upon carfilzomib treatment on MM.1S cells (LC-MS/MS)
Type: cell-based, human
Design: key: −1: significantly down-modulated; 0: not signifcant/not detected; 1: significantly up-modulated
Settings: MM.1S cells; 24 h after carfilzomib treatment (100 nM, 1 h); biological replicate #3; vs mock-treated controls
Experimental: HLA class I and II molecules were isolated using standard immunoaffinity purification as described using the pan-HLA class I specific mAb W6/32, the pan-HLA class II specific mAb T039 and the HLA-DR specific mAB L243 (produced in house). HLA ligand extracts were analyzed in 5 technical replicates as described previously. […] Eluting peptides were analyzed in an online coupled LTQ Orbitrap XL mass spectrometer (Thermo Fisher) using a top 5 CID (collision induced dissociation) fragmentation method. […]
measureName: modulation upon carfilzomib-treatment 24 #3

sequenceinput=APRHPSTNSL readoutvalue=1
sequenceinput=AFIQAGIFQEF readoutvalue=−1
sequenceinput=VPLPPKGRVL readoutvalue=0
sequenceinput=SEFDFFERL readoutvalue=0
sequenceinput=RPQLKGVVL readoutvalue=0
sequenceinput=NEFPVFDEF readoutvalue=0
sequenceinput=RPHGGKSL readoutvalue=0
sequenceinput=RYSTQIHSF readoutvalue=0
sequenceinput=RYLDLFTSF readoutvalue=−1
sequenceinput=EYGHIPSF readoutvalue=0
sequenceinput=RYSPVLSRF readoutvalue=0
sequenceinput=KPQPRPQTL readoutvalue=1
sequenceinput=RYFKGPELL readoutvalue=0
sequenceinput=YVFPGVTRL readoutvalue=0
sequenceinput=VPLTRVSGGAA readoutvalue=1
sequenceinput=IPAKPPVSF readoutvalue=0
sequenceinput=NEVIMTIGF readoutvalue=0
sequenceinput=YYLNEIQSF readoutvalue=0
sequenceinput=FAQIISVALI readoutvalue=0
sequenceinput=IEHPSMSVY readoutvalue=1
sequenceinput=FAYPAIRYL readoutvalue=0
sequenceinput=SPALPGLKL readoutvalue=0
sequenceinput=SYLNSVQRL readoutvalue=0
sequenceinput=TASPLVKSV readoutvalue=0
sequenceinput=TPSSRPASL readoutvalue=0
sequenceinput=KPRPPQGL readoutvalue=1
sequenceinput=LAFPGEMLL readoutvalue=0
sequenceinput=FVFPGELLL readoutvalue=0
sequenceinput=TPAVGRLEV readoutvalue=0
sequenceinput=RPKAQPTTL readoutvalue=1
sequenceinput=TFLPFIHTI readoutvalue=0
